System Name: D1 (Homo sapiens, UniProt P21728)
Sequence (P21728 whole entry): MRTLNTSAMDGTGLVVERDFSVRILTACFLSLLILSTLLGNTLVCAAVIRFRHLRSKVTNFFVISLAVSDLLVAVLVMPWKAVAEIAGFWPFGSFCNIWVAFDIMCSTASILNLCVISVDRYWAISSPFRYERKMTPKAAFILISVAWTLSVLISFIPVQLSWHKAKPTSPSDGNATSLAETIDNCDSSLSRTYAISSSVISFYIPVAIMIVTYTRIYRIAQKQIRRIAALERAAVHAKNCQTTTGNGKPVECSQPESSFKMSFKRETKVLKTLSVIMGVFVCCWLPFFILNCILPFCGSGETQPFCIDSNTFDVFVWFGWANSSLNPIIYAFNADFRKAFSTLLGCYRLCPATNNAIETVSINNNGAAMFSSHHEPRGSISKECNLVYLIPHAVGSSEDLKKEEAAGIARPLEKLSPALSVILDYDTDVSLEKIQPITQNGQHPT
Assay: D1R GS-mediated cAMP accumulation GloSensor assay
Type: cell-based
Friendly reminder: EC50 below 100 nM is 1, at or above is -1.

In [3]: df
Out[3]:
                            compound_smiles  class_name
0  COc1ccnc(Oc2ccc(-c3c(C)c(=O)[nH]c(=O)n3C)c(C)c2)c1C(F)(F)F           1
1  Cc1cc(Oc2nccc3occc23)ccc1-c1cc[nH]c(=O)c1          -1
2  Cc1cc(Oc2nccc3occc23)ccc1-c1cn[nH]c(=O)c1C           1
3  Cc1cc(Oc2nccc3occc23)ccc1-c1cc(N)nc(N)n1          -1
4  Cc1cc(Oc2nccc3occc23)ccc1-c1c(C)c(=O)[nH]c(=O)n1C1CC1           1
5  Cc1cc(Oc2nccc(Cl)c2C(F)(F)F)ccc1-c1c(C)c(=O)[nH]c(=O)n1C          -1

----------
System Name: D1 (Homo sapiens, UniProt P21728)
Assay: BRET β-arrestin2 recruitment assay
Assay type: cell-based
Settings: BRET
Readout Kind: activity in β-arrestin2 recruitment (in words)

>>> print(df.to_string())
                            compound_smiles       result
0  Cc1cc(Oc2nccc3occc23)ccc1-c1cc(N)nc(N)n1  no activity
1  COc1ccnc(Oc2ccc(-c3c(C)c(=O)[nH]c(=O)n3C)c(C)c2)c1C#N  no activity
2  Cc1cc(Oc2nccc3occc23)ccc1-c1c(C)c(=O)[nH]c(=O)n1CC1CC1  no activity
3  Cc1cc(Oc2nccc(Cl)c2C(F)(F)F)ccc1-c1c(C)c(=O)[nH]c(=O)n1C  no activity
4  Cc1cc2c(Oc3ccc(-c4c(C)c(=O)[nH]c(=O)n4C)c(C)c3)nccc2o1  no activity
5  Cc1cc(Oc2nccc3occc23)ccc1-c1c(C)cn[nH]c1=O  no activity
6  COc1ccnc(Oc2ccc(-c3c(C)c(=O)[nH]c(=O)n3C)c(C)c2)c1C(F)(F)F  no activity

----------
System Name: D1 (Homo sapiens, UniProt P21728)
Assay: BRET β-arrestin2 recruitment assay
Type: cell-based
pEC50: −log10 of the molar value.
Readout Kind: pEC50

>>> print(df.to_string())
                            compound_smiles  readout_kind  censoring_operator  recorded_number
0  COc1ccnc(Oc2ccc(-c3c(C)c(=O)[nH]c(=O)n3C)c(C)c2)c1         pEC50                   =             7.28
1  Cc1c(-c2ccc(Oc3nccc4occc34)cc2)n(C)c(=O)[nH]c1=O         pEC50                   =             7.40
2  Cc1cc(Oc2nccc3sccc23)ccc1-c1c(C)c(=O)[nH]c(=O)n1C         pEC50                   =             7.89
3  Cc1cc(Oc2nccc3ccsc23)ccc1-c1c(C)c(=O)[nH]c(=O)n1C         pEC50                   =             8.46
4  Cc1cc(Oc2nccc3occc23)ccc1-c1c(C)cnc(=O)n1C         pEC50                   =             6.82
5  Cc1cc(Oc2nccc3occc23)ccc1-c1cn[nH]c(=O)c1C         pEC50                   =             6.71
6  Cc1cc(Oc2nccc3occc23)ccc1-c1cc(=O)[nH]cn1         pEC50                   <             5.00
7  Cc1cc(Oc2nccc3occc23)ccc1-c1cc(=O)[nH]c(=O)[nH]1         pEC50                   =             5.68
8  CCn1c(-c2ccc(Oc3nccc4occc34)cc2C)c(C)c(=O)[nH]c1=O         pEC50                   =             7.89

----------
System Name: D1 (Homo sapiens)
Assay: BRET β-arrestin2 recruitment assay
Format: cell-based
Settings: read-out: β-arrestin2 EMAX
Documented Emax across a set of compounds
Readout Kind: Emax (%)

>>> df
                            compound_smiles        system_name  recorded_number
0  COc1ccnc(Oc2ccc(-c3c(C)c(=O)[nH]c(=O)n3C)c(C)c2)c1  D1 (Homo sapiens)               27
1  Cc1cc(Oc2nccc3occc23)ccc1-c1c(C)c(=O)[nH]c(=O)n1C1CC1  D1 (Homo sapiens)               74
2  Cc1cc(Oc2nccc3occc23)ccc1-c1c(C)cnc(=O)n1C  D1 (Homo sapiens)               19
3  Cc1cc(Oc2nccc3occc23)ccc1-c1cc(=O)[nH]c(=O)[nH]1  D1 (Homo sapiens)               37
4  Cc1cc(Oc2nccc3ccsc23)ccc1-c1c(C)c(=O)[nH]c(=O)n1C  D1 (Homo sapiens)               65
5  Cc1cc(Oc2nccc3sccc23)ccc1-c1c(C)c(=O)[nH]c(=O)n1C  D1 (Homo sapiens)               30
6  Cc1cc(Oc2ccccn2)ccc1-c1c(C)c(=O)[nH]c(=O)n1C  D1 (Homo sapiens)               40
7  Cc1cc(Oc2nccc3occc23)ccc1-c1cn[nH]c(=O)c1C  D1 (Homo sapiens)               63
8  CCn1c(-c2ccc(Oc3nccc4occc34)cc2C)c(C)c(=O)[nH]c1=O  D1 (Homo sapiens)               65

----------
System Name: D5 (Homo sapiens, UniProt P21918)
Sequence (P21918 whole entry): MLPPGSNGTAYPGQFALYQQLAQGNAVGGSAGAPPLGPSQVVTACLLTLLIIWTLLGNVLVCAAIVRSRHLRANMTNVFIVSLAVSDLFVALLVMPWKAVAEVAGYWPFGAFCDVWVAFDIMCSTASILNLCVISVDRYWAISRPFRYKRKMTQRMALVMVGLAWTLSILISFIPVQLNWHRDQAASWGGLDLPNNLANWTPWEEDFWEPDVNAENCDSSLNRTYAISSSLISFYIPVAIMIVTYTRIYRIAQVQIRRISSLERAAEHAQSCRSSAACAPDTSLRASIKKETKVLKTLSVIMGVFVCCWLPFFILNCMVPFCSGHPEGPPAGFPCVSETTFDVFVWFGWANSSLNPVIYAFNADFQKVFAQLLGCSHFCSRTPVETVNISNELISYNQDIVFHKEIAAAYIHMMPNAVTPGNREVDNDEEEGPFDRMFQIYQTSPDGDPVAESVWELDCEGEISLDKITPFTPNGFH
Readout Kind: log10(Ki) (log10 of the value in nM)

In [3]: df
Out[3]:
                            compound_smiles  recorded_number
0  COc1ccnc(Oc2ccc(-c3c(C)c(=O)[nH]c(=O)n3C)c(C)c2)c1C(F)(F)F             2.23
1  Cc1cc(Oc2nccc3occc23)ccc1-c1c(C)c(=O)[nH]c(=O)n1C1CC1             1.18
2  Cc1cc(Oc2nccc3c2ccn3C)ccc1-c1c(C)c(=O)[nH]c(=O)n1C             1.95
3  Cc1cc(Oc2nccc3ccsc23)ccc1-c1c(C)c(=O)[nH]c(=O)n1C             1.72
4  Cc1cc(Oc2nccc3occc23)ccc1-c1c(C)c(=O)[nH]c(=O)n1C             0.83
5  Cc1cc2c(Oc3ccc(-c4c(C)c(=O)[nH]c(=O)n4C)c(C)c3)nccc2o1             2.27

----------
System Name: D1 (Homo sapiens)
Assay: D1R GS-mediated cAMP accumulation GloSensor assay
Assay type: cell-based
Settings: read-out: GS-cAMP EMAX
Readout Kind: Emax (%)

In [3]: df
Out[3]:
                                   compound        system_name  readout_unit  recorded_number
0  Cc1cc(Oc2nccc3ccsc23)ccc1-c1c(C)c(=O)[nH]c(=O)n1C [Compound 40]  D1 (Homo sapiens)             %              107
1  Cc1cc(Oc2nccc3occc23)ccc1-c1c(C)c(=O)[nH]c(=O)n1C1CCC1 [Compound 20]  D1 (Homo sapiens)             %               82
2  Cc1cc(Oc2nccc3occc23)ccc1-c1cn[nH]c(=O)c1C [Compound 12]  D1 (Homo sapiens)             %               92
3  Cc1cc(Oc2nccc3occc23)ccc1-c1c(C)cnc(=O)n1C [Compound 11]  D1 (Homo sapiens)             %               88
4  Cc1cc(Oc2nccc3occc23)ccc1-c1c(C)cn[nH]c1=O [Compound 13]  D1 (Homo sapiens)             %               82
5  Cc1cc(Oc2nccc3occc23)ccc1-c1cc(=O)[nH]c(=O)[nH]1 [Compound 9]  D1 (Homo sapiens)             %               78
6  CCn1c(-c2ccc(Oc3nccc4occc34)cc2C)c(C)c(=O)[nH]c1=O [Compound 17]  D1 (Homo sapiens)             %               95
7  Cc1cc(Oc2nccc3occc23)ccc1-c1cc[nH]c(=O)c1 [Compound 3]  D1 (Homo sapiens)             %               81
8  Cc1cc(Oc2nccc3occc23)ccc1-c1c(C)c(=O)[nH]c(=O)n1C1CC1 [Compound 18]  D1 (Homo sapiens)             %               90
